The reader will find reported IC50 values listed item by item below.
target: Ubiquitin carboxyl-terminal hydrolase 30 (Homo sapiens); assay: inhibitors of ubiquitin-specific protease 30 deubiquitylating enzyme, concentration dependence, in vitro biochemical, validation of primary hits (AID 1645865); settings: purified USP30, Ub-rhodamine cleavage, fluorescence, 2 h
Active and inactive are the calls of the source.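 Rule for the calls: active = maximal inhibition of the USP30 enzyme reaching 30% or more across the dose series; inactive = the rest.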

Recorded IC50, per entry:
Cc1sc(NC(=O)CN2CCc3ccccc3C2)nc1-c1ccc2c(c1)CCN2C(=O)C1CCCCC1 | > 50 µM (inactive)
COc1ccc(-c2[nH]c3ccccc3c2SCCNC(=O)c2ccc(S(=O)(=O)N3CCOCC3)cc2)cc1 | 28.7 µM

Field IC50 (Ubiquitin carboxyl-terminal hydrolase 30 (Homo sapiens)), entry "CC1=C(c2ccc(F)cc2)S(=O)(=O)NC1=NCC(=O)Nc1ccc(F)cc1" : 21 µM

Entry "Cn1c(C(=O)NCc2ccccn2)cc2c(=O)[nH]c3ccccc3c21" : IC50 on Ubiquitin carboxyl-terminal hydrolase 30 (Homo sapiens) = > 50 µM (inactive)

Recorded IC50 for "O=c1[nH]c(C2CCN(S(=O)(=O)c3ccc(S(=O)(=O)NC4CCCC4)cc3)CC2)nc2c1nnn2Cc1cccc(Cl)c1" on Ubiquitin carboxyl-terminal hydrolase 30 (Homo sapiens) was > 50 µM (inactive)

Data credit: PubChem BioAssay AID1645865
